Data credit: PubChem BioAssay (NCATS)

Test: Stat Signaling Pathway (AID 446);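 further: ME-180 cervical cancer cells given 40 pM IL-6 alongside compound; SIE-controlled beta-lactamase reporter measured as 460/530 nm FRET emission ratio; on the % scale 0 is the no-effect control and ±100 the full control effect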
Details: ME-180 (cervical carcinoma) SIE beta-lactamase reporter, IL-6 stimulated, 5 h; at 7.69 µM (top of the series) unless noted
Inconclusive results are not listed.
property-measured: activity, negative = inhibition (%)
Please give a number only; it is taken to be in %.

INSERT INTO measurements (compound, property_measured, assay_value) VALUES
  ('O=C(CSc1nc2ccc([N+](=O)[O-])cc2s1)c1ccc2ccccc2c1', 'activity, negative = inhibition', 8.96),
  ('NC(N)=NC(N)=Nc1ccc(S(=O)(=O)O)cc1', 'activity, negative = inhibition', -0.308),
  ('COc1ccccc1CCn1c(=O)c(-c2ccccc2)nc2cncnc21', 'activity, negative = inhibition', -0.776),
  ('Cc1cc(=Nc2ccc3c(c2)c(N)cc(C)[n+]3C)nc(N)n1C', 'activity, negative = inhibition', -8.63),
  ('C[C@@H]1NCC[C@H](CC(=O)O)[C@H]1CC(=O)O', 'activity, negative = inhibition', 8.09);

Exercise: For COc1ccccc1-c1nc(NCCc2cnc[nH]2)c2ccccc2n1 , write its activity, negative = inhibition.
Key: 22.8

Exercise: For O=C(O)c1cc(C(=O)O)nc(C(=O)O)c1 , write its activity, negative = inhibition.
Key: 3.63

Exercise: For C[C@H](NCCN(C)C)[C@@H]1CCC2C3CCc4cc(O)ccc4[C@H]3CCC21C (some centres not stated) , write its activity, negative = inhibition.
Key: -5.94

Exercise: For CC(C)c1ccc(/C=C2\C=C(c3ccc4ccccc4c3)OC2=O)cc1 , write its activity, negative = inhibition.
Key: 4.97

Exercise: For O=C(O)c1cccc(C[C@H](Br)C(=O)O)c1 , write its activity, negative = inhibition.
Key: 9.47

---

Assay: Cell Viability - LYMP2-018 (AID 985);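 further: compound exposure lasted 24 hr at 37 °C; nearly all actives have a fitted effect of over 50% in size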
Conditions: LYMP2-018 lymphoblastoid cells, viability (qHTS); series mostly up to 92.2 µM
Records with an inconclusive call do not appear. Active and inactive are the calls of the source. Calls follow the shape of the dose curve; as a rule, active = well fitted cell-killing curve with a large enough effect; inconclusive = small, poorly fitted or top-dose-only effect; inactive = flat fitted curve, though single readings scatter.
Mark one answer only. Choices: T = active, F = inactive

Please review the following examples before continuing.
INSERT INTO measurements (compound, group_label) VALUES
  ('Brc1ccc(-c2ccccc2)cc1', 'F'),
  ('Cc1ccccc1OCC1CO1 (centres undefined)', 'F'),
  ('C=CC1CO1 (centres undefined)', 'F');

Exercise: Hi, sorry to bother you, what did the test record for CC(=O)c1ccc(Cl)c(Cl)c1Cl ?
Key: F

Exercise: Hi, sorry to bother you, what did the test record for CN(C)c1ccc(Cc2ccc(N(C)C)cc2)cc1 ?
Key: F

Exercise: Hi, sorry to bother you, what did the test record for c1ccc2c(c1)ccc1ccccc12 ?
Key: F

Exercise: Hi, sorry to bother you, what did the test record for O=C(OCC1CO1)C1CCCCC1C(=O)OCC1CO1 (centres undefined) ?
Key: T

Exercise: Hi, sorry to bother you, what did the test record for O=[N+]([O-])c1cccc(I)c1 ?
Key: F

Exercise: Hi, sorry to bother you, what did the test record for O=C(O)/C=C/c1ccc(/C=C/C(=O)O)cc1 ?
Key: F

---

Assay: NFAT Signaling Pathway (AID 444);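 further: carbachol stimulus at about its EC50 of 1 µM final; on the % scale 0 is the no-effect control and ±100 the full control effect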
Settings: Jurkat NFAT-bla M1, carbachol, beta-lactamase ratio, 5 h; at 7.69 µM (top of the series) unless noted
Inconclusive results are not listed. Active and inactive are the calls of the source. Calls follow the shape of the dose curve; as a rule, active = well fitted curve in either direction with a large enough effect (not every such curve was filed as active); inconclusive = small, poorly fitted or top-dose-only effect, or another doubt; inactive = flat fitted curve, though single readings scatter.
property-measured: activity change, negative = inhibition

Some entries whose results are on file:
INSERT INTO assay_data (compound_structure, property_measured, assay_value) VALUES
  ('Cn1c(=S)c2[nH]c(SCCCc3ccccc3)nc2n(C)c1=O', 'activity change, negative = inhibition', '3.04% (inactive)'),
  ('Cc1ccc(C)c([C@@H]2NC(=O)c3ccccc3N2)c1', 'activity change, negative = inhibition', '-14.2% (inactive)'),
  ('NCCSc1nc2ccccc2s1', 'activity change, negative = inhibition', '7.28% (inactive)'),
  ('Cc1ccc(S(=O)(=O)Nc2ccccc2C(=O)c2ccc(C)c(C)c2)cc1', 'activity change, negative = inhibition', '2.8% (inactive)'),
  ('O=NN(Cc1ccc(Cl)cc1)[C@@H](C(=O)O)c1ccccc1', 'activity change, negative = inhibition', '-4.59% (inactive)');

Exercise: For CN(C)CCN(c1ccccn1)c1ccccn1 , write its activity change, negative = inhibition.
Key: 7.47% (inactive)

Exercise: For Cc1cccc2cc3ccc4ccccc4c3cc12 , write its activity change, negative = inhibition.
Key: -3.47% (inactive)

Exercise: For O=S(=O)(O)[C@@H](c1ccccc1)[C@@H](O)c1ccccc1 , write its activity change, negative = inhibition.
Key: 8.34% (inactive)

Exercise: For CC1=C/C(=C(/c2ccc(O)c(C)c2)c2ccccc2C(=O)O)C=CC1=O , write its activity change, negative = inhibition.
Key: -5.21% (inactive)

Exercise: For CC(=O)CSCc1ccccn1 , write its activity change, negative = inhibition.
Key: -1.92% (inactive)
